# Test system: phosphorylation of Cdc2 Y15 (Wee1 substrate) in A427 cells
# measurement-protocol: Phosphorylated Cdc2 MSD Electrochemiluminescence Assay
# Type: cell-based
# condition-set: Homo sapiens, A-427, pCDC2 MSD
pIC50: −log10 of the molar value.
measure-name: pIC50

Consider the reported pIC50 for these compounds:
• CN1CCC(c2ccc(Nc3ncc4c(n3)N(c3cccc(N=S(C)(C)=O)n3)[C@@H]3CC(C)(C)OC[C@]43C)cc2F)CC1 (single isomer, unassigned) [Example 177] = 6.00 to 7.00
• CNCc1cccc(N2c3nc(Nc4ccc(S(C)(=O)=O)cc4)ncc3[C@@]3(C)COC(C)(C)C[C@@H]23)n1 (single isomer, unassigned) [Example 34] = 6.00 to 7.00
• CN1C[C@H]2C[C@@H]1CN2c1ccc(Nc2ncc3c(n2)N(c2cccc(N=S(C)(C)=O)n2)[C@@H]2CC(C)(C)OC[C@]32C)cc1F (single isomer, unassigned) [Example 176] = 6.00 to 7.00
• C[C@H]1COC(=O)N1c1cccc(N2c3nc(Nc4cn(C5CCN(C)CC5)nn4)ncc3[C@@]3(C)COC(C)(C)C[C@@H]23)n1 (single isomer, unassigned) [Example 253] = 6.00 to 7.00
• Cc1cnc(Nc2ncc3c(n2)N(c2cccc(N=S(C)(C)=O)n2)[C@@H]2CC(C)(C)OC[C@]32C)cn1 (single isomer, unassigned) [Example 371] = 6.00 to 7.00

Q: Tell me pIC50 reported for CNCc1cccc(N2c3nc(Nc4ccc(N5CCCCC5)cc4)ncc3[C@@]3(C)COC(C)(C)C[C@@H]23)n1 (single isomer, unassigned) [Example 2]
A: 6.00 to 7.00

Q: Provide only the value of recorded pIC50 for C[C@H]1COC(=O)N1c1cccc(N2c3nc(Nc4ccc(N5CCN(C)CC5)cc4)ncc3[C@]3(C)COC(C)(C)C[C@H]23)n1 (single isomer, unassigned) [Example 235]
A: 6.00 to 7.00

Q: Specify pIC50 for C[C@H]1COC(=O)N1c1cccc(N2c3nc(Nc4ccc(N5CCCN(C)CC5)cc4)ncc3[C@@]3(C)COC(C)(C)C[C@@H]23)n1 (single isomer, unassigned) [Example 299] and stop.
A: 6.00 to 7.00

Q: Dear colleague, please send me the reported pIC50 for CNCc1cccc(N2c3nc(Nc4ccn(C5CCOCC5)c(=O)c4)ncc3[C@@]3(C)COC(C)(C)C[C@@H]23)n1 (single isomer, unassigned) [Example 386] when you can.
A: 6.00 to 7.00

Q: Assign pIC50 to the following record: Cc1cc(Nc2ncc3c(n2)N(c2cccc(N=S(C)(C)=O)n2)[C@@H]2CC(C)(C)OC[C@]32C)ccc1[C@@H]1CCNC1 (single isomer, unassigned) [Example 143]
A: 6.00 to 7.00
